biological target: chorismate synthase (CS) (Methanothermobacter thermautotrophicus, UniProt O26843)
Sequence (O26843 whole entry): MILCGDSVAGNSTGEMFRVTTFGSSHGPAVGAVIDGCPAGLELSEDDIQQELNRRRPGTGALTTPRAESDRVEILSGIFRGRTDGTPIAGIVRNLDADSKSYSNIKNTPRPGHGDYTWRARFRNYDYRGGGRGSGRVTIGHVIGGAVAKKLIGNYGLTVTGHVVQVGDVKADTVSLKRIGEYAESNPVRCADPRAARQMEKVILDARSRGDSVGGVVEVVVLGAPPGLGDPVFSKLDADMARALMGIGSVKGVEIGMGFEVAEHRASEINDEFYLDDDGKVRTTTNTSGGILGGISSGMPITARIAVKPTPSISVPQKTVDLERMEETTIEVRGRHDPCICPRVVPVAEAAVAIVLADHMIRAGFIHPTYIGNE
reported-endpoint: Kd (nM)
Express the result in nM but write the number alone.

Query: Recall the reported Kd of `Nc1cc(S(=O)(=O)O)cc2cc(S(=O)(=O)O)c(/N=N/c3cc([N+](=O)[O-])cc(Cl)c3O)c(O)c12` on chorismate synthase (CS) (Methanothermobacter thermautotrophicus, UniProt O26843) and write it down.
Reply: 2700

====

molecular target: chorismate synthase from Paracoccidioides brasiliensis (PbCS) (Paracoccidioides brasiliensis); experiment: Spectrophotometric titration / binding assay, PbCS; settings: read-out: Kd (dissociation constant); spectrophotometric titration, PbCS
Sequence (C1GBW5 entry or part of it): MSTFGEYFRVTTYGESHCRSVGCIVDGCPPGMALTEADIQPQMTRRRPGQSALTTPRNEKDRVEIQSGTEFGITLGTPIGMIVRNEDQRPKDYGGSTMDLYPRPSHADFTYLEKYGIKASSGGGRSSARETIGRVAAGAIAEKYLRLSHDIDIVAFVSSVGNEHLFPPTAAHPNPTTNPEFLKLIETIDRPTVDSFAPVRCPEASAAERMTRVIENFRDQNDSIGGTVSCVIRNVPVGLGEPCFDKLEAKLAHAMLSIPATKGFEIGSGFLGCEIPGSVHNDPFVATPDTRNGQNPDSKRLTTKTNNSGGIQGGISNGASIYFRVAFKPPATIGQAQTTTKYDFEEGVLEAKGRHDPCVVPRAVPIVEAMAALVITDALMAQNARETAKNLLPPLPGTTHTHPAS
reported-endpoint: pKd
// pKd: -log10(molar conc.)

Query: Indicate the recorded pKd value for this compound: Nc1cc(S(=O)(=O)O)cc2cc(S(=O)(=O)O)c(/N=N/c3cc([N+](=O)[O-])cc(Cl)c3O)c(O)c12 [PH011669]
Reply: 5.96
